Reference for the values: ChEMBL document CHEMBL3243931

# reported Activity; entries follow
System: Mus musculus
ASSAY DETAILS: Activity against chemically-induced skin papillomas in Swiss albino mouse assessed as change in total papilloma diameter at 80 mg/kg/day, ip administered five times per week for 2 weeks measured on day 14
Format: functional
CONDITION LABEL: route intraperitoneal
The reply should contain only the number, in %.

SMILES CODE	TARGET OR TEST SYSTEM	SCALE UNIT	Activity
CC1=C(CC/C(C)=C/C=C/C(C)=C\C(=O)O)C(C)(C)CCC1	Mus musculus	%	-28
COC(=O)/C=C(\C)CC/C=C(C)/C=C/C1=C(C)CCCC1(C)C	Mus musculus	%	-13
COC(=O)/C=C(\C)CC/C=C(C)/C=C/c1c(C)cc(OC)c(Cl)c1C	Mus musculus	%	29
COC(=O)/C=C(\C)CC/C=C(C)/C=C/c1c(C)cc(C)c(Cl)c1C	Mus musculus	%	29
COc1cc(C)c(CC/C(C)=C/C=C/C(C)=C/C(=O)O)c(C)c1C	Mus musculus	%	-35
CC1=C(CC/C(C)=C/C=C/C(C)=C/C(=O)O)C(C)(C)CCC1	Mus musculus	%	-33

Tested on Mus musculus, the item `COC(=O)/C=C(C)/C=C/C=C(\C)CCc1c(C)cc(N(C)C)cc1C` showed Activity equal to 20

Tested on Mus musculus, the item `CCOC(=O)/C=C(C)/C=C/C=C(C)/C=C/C1=C(C)CCCC1(C)C` showed Activity equal to -47

Tested on Mus musculus, the item `COC(=O)/C=C(C)/C=C/C=C(\C)CCc1c(C)cc(OC)c(Cl)c1C` showed Activity equal to 1

Tested on Mus musculus, the item `COc1cc(C)c(/C=C/C(C)=C/CC/C(C)=C/C(=O)O)c(C)c1C` showed Activity equal to -17

---

# reported Activity; entries follow
ASSAY DETAILS: Increase in RNA content in mouse epidermal cells at 10 nM after 3 days
Assay type: functional
The reply should contain only the number, in %.

// recorded Activity for `CC1=C(CC/C(C)=C/C=C/C(C)=C/C(=O)O)C(C)(C)CCC1` : 82

---

ASSAY DETAILS: Increase in RNA content in mouse epidermal cells at 1 nM after 3 days
Assay type: functional
MEASURED PARAMETER: Activity (%)
The reply should contain only the number, in %.

Known Activity results, listed for orientation:
MOLECULE	Activity, %
CCOC(=O)CC(C)/C=C/C=C(C)/C=C/C1=C(C)CCCC1(C)C (configuration not stated)	12
COC(=O)/C=C(\C)CC/C=C(C)/C=C/C1=C(C)CCCC1(C)C	3
COC(=O)/C=C(C)/C=C/C=C(C)/C=C/C1=C(C)CCCC1(C)C	8
CC1=C(CC/C(C)=C/C=C/C(C)=C/C(=O)O)C(C)(C)CCC1	1
CC1=C(/C=C/C(C)=C/C=C/C(C)=C/C(=O)O)C(C)(C)CCC1	68

// recorded Activity for CC1=C(/C=C/C(C)C/C=C/C(C)=C/C(=O)O)C(C)(C)CCC1 (racemic) : 3

// recorded Activity for `CCOC(=O)/C=C(C)/C=C/C=C(C)/C=C/C1=C(C)CCCC1(C)C` : 23

---

# reported Activity; entries follow
ASSAY DETAILS: Increase in RNA content in mouse epidermal cells at 1 uM after 3 days
Assay type: functional
Mention the unit after the number when you answer.

Known Activity results, listed for orientation:
COMPOUND	MEASUREMENT
CC1=C(/C=C/C(C)C/C=C/C(C)=C/C(=O)O)C(C)(C)CCC1 (racemic)	118%
CC1=C(CC/C(C)=C/C=C/C(C)=C/C(=O)O)C(C)(C)CCC1	106%
CCOC(=O)CC(C)/C=C/C=C(C)/C=C/C1=C(C)CCCC1(C)C (stereo unspecified)	69%
CCOC(=O)/C=C(C)/C=C/C=C(C)/C=C/C1=C(C)CCCC1(C)C	123%
COC(=O)/C=C(C)/C=C/C=C(C)/C=C/C1=C(C)CCCC1(C)C [RETINOIC ACID METHYL ESTER]	126%

--- query ---
// recorded Activity for `COC(=O)/C=C(\C)CC/C=C(C)/C=C/C1=C(C)CCCC1(C)C` : 21%
